target: recombinant human Lp-PLA2 (Homo sapiens); assay: (1b) hrThioPAF assay, recombinant human Lp-PLA2; format: biochemical; conditions: Examples 266-412 were tested here, one experiment or average of multiple experiments, read-out: rhLp-PLA2 (pIC50) (converted)
MEASURED_QUANTITY: IC50

Solved entries (count: 4):
>>> df
                                   compound                       experimental_target  recorded_result
0  O=c1nc(NCc2cccc(F)c2F)cc2n1CC1CSCCN21 (centres unmarked)  recombinant human Lp-PLA2 (Homo sapiens)          ≤ 10 µM
1  CCCN1CCN2c3cc(OCc4ccc(F)c(F)c4)nc(=O)n3CC2C1 (centres unmarked)  recombinant human Lp-PLA2 (Homo sapiens)          ≤ 10 µM
2  O=c1nc(OCc2cc(F)c(Oc3ccnc(C(F)(F)F)c3)c(F)c2)cc2n1CC1CSCCN21 (centres unmarked)  recombinant human Lp-PLA2 (Homo sapiens)       ≤ 0.001 µM
3  O=c1nc(OCc2cccc(F)c2F)cc2n1CC1CNCCN21 (centres unmarked)  recombinant human Lp-PLA2 (Homo sapiens)          ≤ 10 µM

Then this compound:
Request: Record request: IC50 value, item O=C1CN2c3cc(NCc4ccc(F)c(F)c4)nc(=O)n3CC2CN1 (centres unmarked)
Result: ≤ 10 µM

###

Target: recombinant human Lp-PLA2 (Homo sapiens, UniProt Q13093)
Sequence (Q13093 22-441): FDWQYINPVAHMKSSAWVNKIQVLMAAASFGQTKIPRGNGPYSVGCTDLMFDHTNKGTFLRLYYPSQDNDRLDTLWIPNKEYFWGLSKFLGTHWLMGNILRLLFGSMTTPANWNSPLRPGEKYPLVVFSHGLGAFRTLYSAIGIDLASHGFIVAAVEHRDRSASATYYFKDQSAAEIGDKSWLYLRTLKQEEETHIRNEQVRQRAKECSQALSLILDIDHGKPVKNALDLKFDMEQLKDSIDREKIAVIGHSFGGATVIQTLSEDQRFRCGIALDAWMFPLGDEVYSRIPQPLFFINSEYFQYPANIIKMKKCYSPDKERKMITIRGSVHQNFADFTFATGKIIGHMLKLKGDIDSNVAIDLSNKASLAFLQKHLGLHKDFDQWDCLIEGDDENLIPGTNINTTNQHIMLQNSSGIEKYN
Test: (1a) PED6 assay, recombinant human Lp-PLA2 (rhLp-PLA2)
Assay type: biochemical
Settings: Examples 1-167 and 413-430 were tested here, one experiment or average of multiple experiments, read-out: rhLp-PLA2 (pIC50) (converted)
In this section, each of the compounds is paired with its reported IC50.

                                   compound  recorded_result
0  O=c1nc(OCc2cc(F)c(OC3CN(CCC(F)(F)F)C3)c(F)c2)cc2n1CC1CCCN21 (centres unmarked) [Example E96]         ≤ 100 nM
1  Cn1cc(Oc2c(F)cc(COc3cc4n(c(=O)n3)C[C@@H]3CCCCN43)cc2F)cn1 [Example E50]         ≤ 100 nM
2  N#Cc1cc(COc2cc3n(c(=O)n2)CC2COCCN32)ccc1Oc1ccc(F)c(C(F)(F)F)c1 (centres unmarked) [Example E111]           ≤ 1 nM

Request: Record request: IC50 value, item O=c1nc(OCc2cccc(F)c2F)cc2n1C[C@H]1CCCN21 [Example E101]
Result: ≤ 100 nM

Request: Also check Cc1cc(COc2cc3n(c(=O)n2)CC2CCCCN32)cc(F)c1F (centres unmarked) [Example E14]
Result: ≤ 100 nM

Request: Also check O=c1nc(OCc2ccc(Oc3ccnc(C(F)(F)F)c3)c(F)c2)cc2n1CC1CCCCN21 (centres unmarked) [Example E17]
Result: ≤ 1 nM

Request: Also check N#Cc1cc(COc2cc3n(c(=O)n2)CC2CCCCN32)ccc1Oc1ccc(Cl)c(F)c1 (centres unmarked) [Example E24]
Result: ≤ 1 nM

Request: Also check O=c1nc(OCc2cc(F)c(F)c(F)c2)cc2n1C[C@H]1CCCCN21 [Example E54]
Result: ≤ 100 nM

Sourced from patent US11999746B2
